Listing: IC50 of selected molecules
system-tested: EHMT1 (Homo sapiens, UniProt Q9H9B1)
Sequence (Q9H9B1 whole entry): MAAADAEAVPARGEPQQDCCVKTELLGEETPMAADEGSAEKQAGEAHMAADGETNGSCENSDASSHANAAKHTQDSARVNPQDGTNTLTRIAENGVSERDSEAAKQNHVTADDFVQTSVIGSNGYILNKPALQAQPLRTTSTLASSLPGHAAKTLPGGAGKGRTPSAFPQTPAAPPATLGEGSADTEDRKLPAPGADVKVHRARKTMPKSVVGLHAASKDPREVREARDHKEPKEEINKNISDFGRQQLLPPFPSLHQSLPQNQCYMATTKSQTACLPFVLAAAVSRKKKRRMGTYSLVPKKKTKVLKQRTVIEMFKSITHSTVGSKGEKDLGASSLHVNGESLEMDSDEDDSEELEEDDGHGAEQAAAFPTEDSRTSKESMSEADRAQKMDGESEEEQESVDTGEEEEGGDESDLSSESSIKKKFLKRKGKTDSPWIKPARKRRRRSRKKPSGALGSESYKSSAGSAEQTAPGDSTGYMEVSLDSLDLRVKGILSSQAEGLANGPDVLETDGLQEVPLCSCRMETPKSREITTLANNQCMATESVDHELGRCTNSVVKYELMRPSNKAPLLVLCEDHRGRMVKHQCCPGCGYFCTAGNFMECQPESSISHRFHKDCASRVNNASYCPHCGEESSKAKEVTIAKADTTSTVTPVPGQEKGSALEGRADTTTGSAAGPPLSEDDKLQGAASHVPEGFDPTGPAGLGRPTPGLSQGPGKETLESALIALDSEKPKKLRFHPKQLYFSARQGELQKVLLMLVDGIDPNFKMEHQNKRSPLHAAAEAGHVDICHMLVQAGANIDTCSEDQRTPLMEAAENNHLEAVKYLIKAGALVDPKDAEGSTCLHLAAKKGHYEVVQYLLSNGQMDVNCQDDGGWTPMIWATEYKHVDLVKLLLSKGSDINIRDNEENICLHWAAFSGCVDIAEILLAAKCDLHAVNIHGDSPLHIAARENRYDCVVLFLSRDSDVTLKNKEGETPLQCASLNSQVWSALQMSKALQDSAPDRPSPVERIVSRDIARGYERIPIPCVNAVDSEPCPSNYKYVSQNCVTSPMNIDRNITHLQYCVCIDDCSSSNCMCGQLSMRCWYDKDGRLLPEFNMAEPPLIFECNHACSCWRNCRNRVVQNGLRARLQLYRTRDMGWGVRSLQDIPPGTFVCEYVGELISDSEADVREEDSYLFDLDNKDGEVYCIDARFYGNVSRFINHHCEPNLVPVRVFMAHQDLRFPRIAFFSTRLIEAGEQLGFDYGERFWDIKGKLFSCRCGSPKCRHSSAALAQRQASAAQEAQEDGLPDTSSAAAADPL
protocol-description: EHMT1 PEP (EHMT1 peptide enzyme assay)
Type: biochemical
details: peptide substrate enzyme assay
Structures can show the parent of a compound that is named as a salt.

For the molecule shown here, CNc1cc(C)nc(Nc2ccc(Cl)c(C(=O)Nc3ccncn3)c2)n1 , give the reported IC50.
1 to 10 µM

For the molecule shown here, CNc1cc(C)nc(Nc2ccc(C)c(-c3cc4ccncc4[nH]3)c2)n1 , give the reported IC50.
< 0.1 µM

For the molecule shown here, CNCc1cnn(-c2cc(Nc3nccc(NC)n3)ccc2OC)c1 , give the reported IC50.
< 0.1 µM

For the molecule shown here, COc1cc2c(cc1-c1cc3[nH]ccc3cn1)N=C(NCC(N)=O)C21CCC1 , give the reported IC50.
0.1 to 1 µM

For the molecule shown here, CNc1ccnc(Nc2ccc(OC)c(-n3cc(CNC4CCC4)nn3)c2)n1 , give the reported IC50.
0.1 to 1 µM

For the molecule shown here, CNc1cc(C)nc(Nc2cnc(OC)c(-n3cnc(CN(C)C)n3)c2)n1 , give the reported IC50.
1 to 10 µM

For the molecule shown here, CNCc1cnn(-c2c(Cl)ccc(Nc3nc(C)cc(NC)n3)c2Cl)c1 , give the reported IC50.
< 0.1 µM

For the molecule shown here, CNc1cc(C)nc(Nc2ccc(OC)c(-n3ncc4ccncc43)c2)n1 , give the reported IC50.
1 to 10 µM

For the molecule shown here, CNc1cc(C)nc(Nc2ccc(OC)c(-n3cc4c(n3)CNCC4)c2)n1 [Compound 22, hydrochloride] , give the reported IC50.
1 to 10 µM

For the molecule shown here, CNc1cc(C)nc(Nc2ccc(C)c(-c3[nH]c4cnccc4c3C#N)c2)n1 , give the reported IC50.
1 to 10 µM

For the molecule shown here, CNc1ccnc(Nc2ccc(OC)c(-n3cc(CNCC4CC4)nn3)c2)n1 , give the reported IC50.
< 0.1 µM

For the molecule shown here, CNc1cc(C)nc(Nc2ccc(OC)c(-n3ncc4c3CN(C(C)=O)CC4)c2)n1 , give the reported IC50.
> 10 µM

For the molecule shown here, CNc1cc(C)nc(Nc2ccc(OC)c(-n3ncc4cnccc43)c2)n1 , give the reported IC50.
1 to 10 µM

For the molecule shown here, CNCc1cc(-c2cc(Nc3nc(C)cc(NC)n3)ccc2OC)no1 , give the reported IC50.
< 0.1 µM

For the molecule shown here, CNc1cc(C)nc(Nc2cnc(OC)c(-n3cc4c(n3)CCN(C)C4)c2)n1 , give the reported IC50.
0.1 to 1 µM

For the molecule shown here, CNCc1cnn(-c2c(F)ccc(Nc3nc(C)cc(NC)n3)c2F)c1 , give the reported IC50.
< 0.1 µM

For the molecule shown here, CNc1cc(C)nc(Nc2ccc(OC)c(-n3cc(C)c(CNC(C)=O)n3)c2)n1 , give the reported IC50.
1 to 10 µM

For the molecule shown here, CNc1cc(C)nc(Nc2cnc(OC)c(-c3nc4cnccn4n3)c2)n1 , give the reported IC50.
1 to 10 µM

###

system-tested: recombinant purified human EHMT2 913-1193 (Homo sapiens, UniProt Q96KQ7)
Construct: Recombinant purified human EHMT2 913-1193 (55 μM) synthesized by Viva was used for all experiments; purchased Viva
Sequence (Q96KQ7 913-1193): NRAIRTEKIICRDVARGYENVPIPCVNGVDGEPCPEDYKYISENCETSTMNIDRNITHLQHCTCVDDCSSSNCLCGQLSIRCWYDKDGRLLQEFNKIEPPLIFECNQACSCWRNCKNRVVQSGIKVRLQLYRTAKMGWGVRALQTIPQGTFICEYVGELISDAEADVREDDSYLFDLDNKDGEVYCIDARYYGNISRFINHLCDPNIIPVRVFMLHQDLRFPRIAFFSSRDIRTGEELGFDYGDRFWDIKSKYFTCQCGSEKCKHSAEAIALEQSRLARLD
protocol-description: EHMT2 enzyme assay on histone peptide substrate (3H-SAM Flashplate)
Type: biochemical
details: read-out: EHMT2 PEP (IC50 μM)
value-kind: IC50

Some compounds with recorded IC50:
For the compound shown here, CNc1cc(C)nc(Nc2ccc(C)c(C(=O)Nc3cscn3)c2)n1 , give the reported IC50.
> 10 µM

For the compound shown here, CNCc1cnn(-c2cc(Nc3nc(C)cc(NC)n3)ccc2C)c1 , give the reported IC50.
< 0.1 µM

---
For the compound shown here, CNc1cc(C)nc(Nc2ccc(OC)c(-c3c(C)nc4cnccn34)c2)n1 , give the reported IC50.
> 10 µM

For the compound shown here, CNc1cc(C)nc(Nc2ccc(OC)c(-c3cn4ccnc4cn3)c2)n1 , give the reported IC50.
> 10 µM

For the compound shown here, CNc1cc(C)nc(Nc2ccc(OC)c(-c3cc4cnoc4cn3)c2)n1 , give the reported IC50.
> 10 µM

For the compound shown here, CNc1ccnc(Nc2ccc(OC)c(-c3ccc4cc[nH]c4c3)c2)n1 , give the reported IC50.
> 10 µM

For the compound shown here, CNc1cc(C)nc(Nc2ccc(OC)c(-c3ccc4cc(C)[nH]c4c3)c2)n1 , give the reported IC50.
> 10 µM

For the compound shown here, CNc1cc(C)nc(Nc2ccc(OC)c(-n3cc(C(C)NC)nn3)c2)n1 (centres unmarked) , give the reported IC50.
0.1 to 1 µM

For the compound shown here, CNc1cc(C)nc(Nc2ccc(OC)c(-n3cc4c(n3)CCN(C3COC3)C4)c2)n1 , give the reported IC50.
> 10 µM

For the compound shown here, CNc1cc(C)nc(Nc2ccc(OC)c(-c3cc4[nH]ccc4c(C)n3)c2)n1 , give the reported IC50.
< 0.1 µM

For the compound shown here, CNc1ccnc(Nc2ccc(OC)c(-n3cc(CN(C)C)nn3)c2)n1 , give the reported IC50.
< 0.1 µM

For the compound shown here, CNc1cc(C)nc(Nc2cnc(OC)c(-n3cc(C4CCCN4)cn3)c2)n1 (centres unmarked) , give the reported IC50.
0.1 to 1 µM

For the compound shown here, CNc1cc(C)nc(Nc2ccc(Cl)c(C(=O)Nc3ncccn3)c2)n1 , give the reported IC50.
1 to 10 µM

For the compound shown here, CNc1cc(C)nc(Nc2ccc(OC)c(-n3cc4ccccc4n3)c2)n1 , give the reported IC50.
> 10 µM

For the compound shown here, CNc1cc(C)nc(Nc2ccc(OC)c(-c3cc4[nH]ccc4cn3)c2)n1 , give the reported IC50.
< 0.1 µM

For the compound shown here, CNc1cc(C)nc(Nc2ccc(C)c(-c3cc4[nH]ccc4cn3)c2)n1 , give the reported IC50.
< 0.1 µM

For the compound shown here, CNc1cc(C)nc(Nc2ccc(OC)c(-c3nc4n(n3)CCN(C)C4)c2)n1 , give the reported IC50.
> 10 µM

For the compound shown here, CNc1cc(C)nc(Nc2ccc(OC)c(-n3cc4c(C)nccc4n3)c2)n1 , give the reported IC50.
1 to 10 µM
